This section presents binders with their documented neutralization IC50 values.
Target: Env of HIV-1 strain 250-4 (HIV-1)
Test: cell-based or functional assay

{"binder": "8ANC3430 (antibody, V domains shown) VH: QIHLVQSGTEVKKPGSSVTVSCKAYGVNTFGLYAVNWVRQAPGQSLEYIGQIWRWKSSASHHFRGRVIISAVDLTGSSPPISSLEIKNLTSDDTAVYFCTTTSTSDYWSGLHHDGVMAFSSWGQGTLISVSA VL: DIQMTQSPSTLSASVGDTVRISCRASQSITGGWLAWYHQRPGKAPRLLIYRGSRLLGGVPSRFSGSAAGTDFTLTIANLQAEDFGTFYCQQYDTYPGTFGQGTKVEVKR", "neutralization IC50": "> 23 µg/mL"}
{"binder": "γ59κ61 (antibody, V domains shown) VH: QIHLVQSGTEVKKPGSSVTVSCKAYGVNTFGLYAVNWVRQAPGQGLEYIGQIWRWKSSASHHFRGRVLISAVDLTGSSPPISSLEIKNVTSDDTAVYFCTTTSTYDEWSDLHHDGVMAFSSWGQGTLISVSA VL: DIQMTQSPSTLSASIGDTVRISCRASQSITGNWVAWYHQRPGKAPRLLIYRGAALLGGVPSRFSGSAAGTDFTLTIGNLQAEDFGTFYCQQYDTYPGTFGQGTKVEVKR", "neutralization IC50": "> 15 µg/mL"}
{"binder": "8ANC3044 (antibody, V domains shown) VH: QIHLVQSGTEVRKPGSSVTVSCKAYGVNTFGLYAVNWVRQAPGQSLEYIGQIWRWKSSASHHFRGRVLISAVDLTGSSPPISSLEIKNLTSDDTAVYFCTTTSTYDKWSGLHHDGVMAFSSWGQGTLISVSA VL: DIQMTQSPSTLSASIGDTVRISCRASQSITGNWVAWYQQRPGKAPRLLIYRGAALLGGVPSRFSGSAAGTDFTLTIGNLQTEDFGTFYCQQYDTYPGTFGQGTKVEVKR", "neutralization IC50": "> 30 µg/mL"}
{"binder": "γ22κ5 (antibody, V domains shown) VH: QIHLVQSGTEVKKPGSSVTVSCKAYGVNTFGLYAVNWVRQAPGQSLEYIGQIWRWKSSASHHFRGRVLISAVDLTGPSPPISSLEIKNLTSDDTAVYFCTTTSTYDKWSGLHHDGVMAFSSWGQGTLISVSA VL: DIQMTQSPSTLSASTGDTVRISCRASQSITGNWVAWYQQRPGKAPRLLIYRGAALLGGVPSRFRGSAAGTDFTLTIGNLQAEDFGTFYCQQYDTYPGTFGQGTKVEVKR", "neutralization IC50": "> 15 µg/mL"}
{"binder": "γ3κ3 (antibody, V domains shown) VH: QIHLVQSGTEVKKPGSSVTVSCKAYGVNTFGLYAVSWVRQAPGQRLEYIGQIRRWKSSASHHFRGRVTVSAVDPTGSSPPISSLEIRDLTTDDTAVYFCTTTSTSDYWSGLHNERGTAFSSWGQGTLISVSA VL: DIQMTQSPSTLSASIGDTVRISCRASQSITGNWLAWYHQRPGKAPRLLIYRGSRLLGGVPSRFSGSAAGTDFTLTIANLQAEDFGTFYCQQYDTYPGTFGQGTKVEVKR", "neutralization IC50": "> 15 µg/mL"}
{"binder": "8ANC3630 (antibody, V domains shown) VH: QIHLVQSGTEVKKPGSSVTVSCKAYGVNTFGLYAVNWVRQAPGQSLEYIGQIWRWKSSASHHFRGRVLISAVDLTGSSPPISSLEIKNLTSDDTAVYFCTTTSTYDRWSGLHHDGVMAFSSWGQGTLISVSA VL: DIQMTQSPSTLSASIGDTVRISCRASQSITGGWLAWYHQRPGKAPRLLIYRGSRLLGGVPSRFSGSAAGTDFTLTIANLQAEDFGTFYCQQYDTYPGTFGQGTKVEVKR", "neutralization IC50": "> 30 µg/mL"}
{"binder": "γ4κ18 (antibody, V domains shown) VH: QIHLVQSGTEVKKPGSSVTVSCKAYGVNTFGLYAVNWVRQAPGQSLEYIGQIWRWKSSASHHFRGRVIISAVDLTGSSPPISPLEIKNLTSDDTAVYFCTTTSTSDRWSGLHHDGVMAFSSWGQGTLISVSA VL: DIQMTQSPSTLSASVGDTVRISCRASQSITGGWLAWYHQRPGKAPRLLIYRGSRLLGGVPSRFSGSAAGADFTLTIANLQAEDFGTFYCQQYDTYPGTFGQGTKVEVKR", "neutralization IC50": "> 15 µg/mL"}
{"binder": "γ59κ11 (antibody, V domains shown) VH: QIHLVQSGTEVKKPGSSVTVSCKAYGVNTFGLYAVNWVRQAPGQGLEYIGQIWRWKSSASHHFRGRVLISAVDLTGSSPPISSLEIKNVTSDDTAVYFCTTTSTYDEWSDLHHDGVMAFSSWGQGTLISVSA VL: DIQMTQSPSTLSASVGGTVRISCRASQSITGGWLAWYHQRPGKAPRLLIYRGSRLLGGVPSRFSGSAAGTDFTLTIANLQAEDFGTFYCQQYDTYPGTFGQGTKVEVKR", "neutralization IC50": "> 15 µg/mL"}
{"binder": "γ3κ11 (antibody, V domains shown) VH: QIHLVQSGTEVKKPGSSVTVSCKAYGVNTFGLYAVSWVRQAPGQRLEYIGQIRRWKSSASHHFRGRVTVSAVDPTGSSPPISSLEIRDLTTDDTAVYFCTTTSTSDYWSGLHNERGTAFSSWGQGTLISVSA VL: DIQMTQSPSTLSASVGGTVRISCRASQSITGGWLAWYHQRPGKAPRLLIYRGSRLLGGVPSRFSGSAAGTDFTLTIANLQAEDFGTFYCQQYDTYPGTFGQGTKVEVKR", "neutralization IC50": "> 15 µg/mL"}
{"binder": "γ20κ11 (antibody, V domains shown) VH: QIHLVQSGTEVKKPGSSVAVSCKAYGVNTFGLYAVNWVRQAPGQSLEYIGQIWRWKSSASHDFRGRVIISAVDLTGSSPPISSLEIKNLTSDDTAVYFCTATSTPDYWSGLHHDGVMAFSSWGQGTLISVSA VL: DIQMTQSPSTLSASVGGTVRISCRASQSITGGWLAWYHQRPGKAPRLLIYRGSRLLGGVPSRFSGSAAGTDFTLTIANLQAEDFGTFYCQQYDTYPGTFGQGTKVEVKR", "neutralization IC50": "> 15 µg/mL"}
{"binder": "γ8κ3 (antibody, V domains shown) VH: QIHLVQSGTGVKKPGSSVTVSCKAYGVNTFGLYAVNWVRQAPGQGLEYIGQIWRWKSSASHHFRGRVLISAVDLTGSSPPITSLEIKNVTSDDTAVYFCTTTSTYDKWSGLYHDGVMAFSSWGQGTLISVSA VL: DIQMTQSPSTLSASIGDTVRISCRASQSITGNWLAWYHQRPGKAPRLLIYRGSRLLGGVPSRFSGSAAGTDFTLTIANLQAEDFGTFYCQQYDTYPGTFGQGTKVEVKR", "neutralization IC50": "> 15 µg/mL"}
